Listing of recorded IC50 by entry.
Target: Genome polyprotein (dengue virus type 2, UniProt P29990)
Sequence (P29990 1346-1475 limits assumed): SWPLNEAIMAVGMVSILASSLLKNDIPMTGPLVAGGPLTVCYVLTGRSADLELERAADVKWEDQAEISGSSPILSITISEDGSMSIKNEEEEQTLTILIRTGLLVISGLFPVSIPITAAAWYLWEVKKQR
Sequence (P29990 1476-2093 limits assumed): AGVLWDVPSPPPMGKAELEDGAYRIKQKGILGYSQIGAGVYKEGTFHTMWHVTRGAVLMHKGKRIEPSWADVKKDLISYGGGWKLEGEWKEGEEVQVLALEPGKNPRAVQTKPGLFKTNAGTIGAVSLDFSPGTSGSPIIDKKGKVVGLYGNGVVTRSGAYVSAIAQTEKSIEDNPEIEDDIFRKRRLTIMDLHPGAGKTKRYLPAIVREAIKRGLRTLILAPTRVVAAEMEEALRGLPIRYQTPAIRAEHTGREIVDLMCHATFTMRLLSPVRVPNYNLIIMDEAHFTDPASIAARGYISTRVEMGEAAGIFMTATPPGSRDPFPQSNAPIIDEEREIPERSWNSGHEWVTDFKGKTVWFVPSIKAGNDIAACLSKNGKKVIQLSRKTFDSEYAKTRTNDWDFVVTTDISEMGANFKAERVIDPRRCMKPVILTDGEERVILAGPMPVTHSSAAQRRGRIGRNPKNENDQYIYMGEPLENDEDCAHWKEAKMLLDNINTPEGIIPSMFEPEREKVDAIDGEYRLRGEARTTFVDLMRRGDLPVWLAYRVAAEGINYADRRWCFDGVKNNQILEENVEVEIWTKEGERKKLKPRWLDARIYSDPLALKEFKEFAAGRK
Format: functional, Thailand/16681/1984
measurementLabel: IC50

{"columns": ["compound", "systemName", "endpointResult"],
 "data": [
  ["O=C(Nc1cc(Cl)cc(C(=O)N2CCC[C@H]2C(=O)O)c1)OCc1ccccc1", "Genome polyprotein (dengue virus type 2, UniProt P29990)", "> 99.5 µM"],
  ["O=C(Nc1ccccc1)Oc1ccccc1 [PHENYL PHENYLCARBAMATE]", "Genome polyprotein (dengue virus type 2, UniProt P29990)", "> 59.8 µM"],
  ["COc1ccc(S(=O)(=O)Nc2ccc(Cl)cc2C(=O)O)cc1", "Genome polyprotein (dengue virus type 2, UniProt P29990)", "> 99.5 µM"],
  ["Cc1c(C(=O)Nc2ccc3c(c2)CCS3(=O)=O)cc(C2CC2)n1C", "Genome polyprotein (dengue virus type 2, UniProt P29990)", "> 99.5 µM"],
  ["Cn1nc(C(=O)Nc2cc(-c3cccnc3)ccn2)cc1C1CC1", "Genome polyprotein (dengue virus type 2, UniProt P29990)", "> 99.5 µM"],
  ["COC(=O)c1cc(Cl)ccc1NS(=O)(=O)c1ccc(Oc2ccccc2Cl)nc1", "Genome polyprotein (dengue virus type 2, UniProt P29990)", "> 99.5 µM"],
  ["Cc1nc2ccc(C(=O)Nc3ccc4c(c3)CNC4)cc2s1", "Genome polyprotein (dengue virus type 2, UniProt P29990)", "> 99.5 µM"],
  ["O=C(O)c1cc(Cl)ccc1NS(=O)(=O)c1ccc(Oc2ccccc2Cl)nc1", "Genome polyprotein (dengue virus type 2, UniProt P29990)", "46.9 µM"],
  ["COC(=O)c1cc2scc(Br)c2[nH]1", "Genome polyprotein (dengue virus type 2, UniProt P29990)", "> 99.5 µM"],
  ["Cc1nnsc1Cn1ccc(Br)n1", "Genome polyprotein (dengue virus type 2, UniProt P29990)", "> 99.5 µM"],
  ["COc1ccc(S(=O)(=O)Nc2cc(F)c(Cl)cc2C(=O)NCC(C)C)cc1", "Genome polyprotein (dengue virus type 2, UniProt P29990)", "97 µM"],
  ["NCc1cccc(NC(=O)[C@H]2[C@H]3CCC[C@H]3[C@@H]2NC(=O)OCc2ccccc2)c1", "Genome polyprotein (dengue virus type 2, UniProt P29990)", "> 99.5 µM"],
  ["CCn1c(=O)c(N2CCC[C@@H]2c2cncn2C)nc2ccccc21", "Genome polyprotein (dengue virus type 2, UniProt P29990)", "> 99.5 µM"],
  ["CCn1c(=O)c(N2C[C@H](O)C3(CC3)C2)nc2ccccc21", "Genome polyprotein (dengue virus type 2, UniProt P29990)", "> 99.5 µM"],
  ["C[C@@H](Oc1ccc(S(=O)(=O)Nc2ccc(Cl)cc2C(=O)O)cc1)c1ccccc1F", "Genome polyprotein (dengue virus type 2, UniProt P29990)", "8.2 µM"],
  ["COc1ccc(-c2cc(NS(=O)(=O)c3ccc(Cl)cc3C(=O)O)ccc2OC)cc1", "Genome polyprotein (dengue virus type 2, UniProt P29990)", "48.8 µM"],
  ["O=C(Nc1ccc2c(c1)CNC2)c1cc(F)cc2[nH]c(-c3cnc(C4CC4)o3)nc12", "Genome polyprotein (dengue virus type 2, UniProt P29990)", "> 49.7 µM"],
  ["NC[C@H]1CC[C@H](CNC(=O)c2cc(Cl)cc(NC(=O)OCc3ccccc3)c2)CC1", "Genome polyprotein (dengue virus type 2, UniProt P29990)", "> 99.5 µM"],
  ["O=C(Nc1cc(-c2cccnc2)ccn1)c1cc2n(n1)CCO2", "Genome polyprotein (dengue virus type 2, UniProt P29990)", "> 99.5 µM"],
  ["CC(C)CNC(=O)[C@H](Nc1ccc2c(c1)CNC2)c1cc(Cl)cc2[nH]ncc12", "Genome polyprotein (dengue virus type 2, UniProt P29990)", "> 99.5 µM"],
  ["CN1CCc2ccc(C(=O)N3CCNc4ccccc4C3)cc2C1", "Genome polyprotein (dengue virus type 2, UniProt P29990)", "> 99.5 µM"],
  ["OCCCCCc1nc(-c2ccc(Br)o2)no1", "Genome polyprotein (dengue virus type 2, UniProt P29990)", "> 99.5 µM"],
  ["O=C(Nc1ccc2c(c1)CN[C@H]2[C@H](O)CO)c1cc(F)cc2[nH]ncc12", "Genome polyprotein (dengue virus type 2, UniProt P29990)", "> 99.5 µM"],
  ["Cc1c(C(=O)Nc2cc(C(=O)N(C)C)ccn2)cc(C2CC2)n1C", "Genome polyprotein (dengue virus type 2, UniProt P29990)", "> 99.5 µM"],
  ["NCc1cc(Cl)cc(C(=O)Nc2cccc(C3CCNCC3)c2)c1", "Genome polyprotein (dengue virus type 2, UniProt P29990)", "> 99.5 µM"],
  ["Cc1cccc(CNc2ccc(Cl)cc2C(=O)Nc2ccc3c(c2)CNC3)n1", "Genome polyprotein (dengue virus type 2, UniProt P29990)", "> 99.5 µM"],
  ["Cc1n[nH]cc1CC(=O)N1CCCC12CCN(C(=O)c1ccnc(CO)c1)CC2", "Genome polyprotein (dengue virus type 2, UniProt P29990)", "> 99.5 µM"],
  ["O=C1Cc2ccc(NC(=O)c3cc(F)cc4[nH]ncc34)cc2N1", "Genome polyprotein (dengue virus type 2, UniProt P29990)", "> 99.5 µM"],
  ["O=C(c1cccnc1)N1CCN(Cc2c[nH]c3ccccc23)CC1", "Genome polyprotein (dengue virus type 2, UniProt P29990)", "> 99.5 µM"],
  ["O=C(Nc1cc(Cl)cc(C(=O)Nc2ccc([C@@H]3C[C@H]3C(=O)O)cc2)c1)OCc1ccccc1", "Genome polyprotein (dengue virus type 2, UniProt P29990)", "19.5 µM"],
  ["NCc1cccc(NC(=O)c2cc(NC(=O)OCc3ccccc3)c(=O)n3c2CCCC3)c1", "Genome polyprotein (dengue virus type 2, UniProt P29990)", "> 99.5 µM"],
  ["NCc1cc(Cl)cc(-c2ccc3[nH]c(C(=O)O)cc3c2)c1", "Genome polyprotein (dengue virus type 2, UniProt P29990)", "> 99.5 µM"],
  ["Cc1[nH]c2ccccc2c1CN1CCC(c2nc3ccccc3s2)CC1", "Genome polyprotein (dengue virus type 2, UniProt P29990)", "> 99.5 µM"],
  ["N[C@@H]1CC[C@H](NC(=O)c2cc(Cl)cc(NC(=O)OCc3ccccc3)c2)C1", "Genome polyprotein (dengue virus type 2, UniProt P29990)", "> 99.5 µM"],
  ["O=C(Nc1ccc2c(c1)CNC2)c1ncnc2ccsc12", "Genome polyprotein (dengue virus type 2, UniProt P29990)", "> 99.5 µM"],
  ["CNC(=O)c1cccc(CCC(=O)Nc2cc(Cl)cc(C(=O)NC(C)(C)CO)c2)c1", "Genome polyprotein (dengue virus type 2, UniProt P29990)", "> 99.5 µM"],
  ["N#C[C@H](Nc1ccc2c(c1)CNC2)c1cccc2ncccc12", "Genome polyprotein (dengue virus type 2, UniProt P29990)", "> 99.5 µM"],
  ["Cc1ccc(S(=O)(=O)N2Cc3ccccc3C[C@@H](C(=O)Nc3cccc(CN)c3)C2)cc1", "Genome polyprotein (dengue virus type 2, UniProt P29990)", "75.2 µM"],
  ["CC1(C)CCC(F)(F)C[C@H]1C(=O)Nc1cccc(CN)c1", "Genome polyprotein (dengue virus type 2, UniProt P29990)", "> 99.5 µM"],
  ["O=C1Cc2c(cccc2C(=O)Nc2ccc(N3CCOC3=O)nc2)N1", "Genome polyprotein (dengue virus type 2, UniProt P29990)", "> 99.5 µM"],
  ["NCc1cccc(NC(=O)[C@H](NC(=O)OCc2ccccc2)c2ccc(OCCc3cscn3)cc2)c1", "Genome polyprotein (dengue virus type 2, UniProt P29990)", "> 99.5 µM"],
  ["NCc1cccc(NC(=O)[C@@H](NC(=O)OCc2ccccc2)c2ccc(-c3ccc4scnc4c3)cc2)c1", "Genome polyprotein (dengue virus type 2, UniProt P29990)", "42.9 µM"]
]}
